assay_system: TEAD4 (Homo sapiens, UniProt Q15561)
Sequence (Q15561 whole entry, species assumed): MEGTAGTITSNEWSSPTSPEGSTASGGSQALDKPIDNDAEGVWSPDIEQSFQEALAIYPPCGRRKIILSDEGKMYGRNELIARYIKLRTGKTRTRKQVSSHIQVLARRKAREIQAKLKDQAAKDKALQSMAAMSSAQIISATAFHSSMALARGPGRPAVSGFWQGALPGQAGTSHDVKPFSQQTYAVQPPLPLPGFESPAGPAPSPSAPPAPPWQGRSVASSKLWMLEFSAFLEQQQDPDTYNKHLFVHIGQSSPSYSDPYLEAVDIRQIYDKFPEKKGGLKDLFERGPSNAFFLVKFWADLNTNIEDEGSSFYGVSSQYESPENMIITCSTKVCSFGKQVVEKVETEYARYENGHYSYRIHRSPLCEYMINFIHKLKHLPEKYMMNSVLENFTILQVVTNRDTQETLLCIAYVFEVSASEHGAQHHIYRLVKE
measurement_name: pIC50
pIC50 is defined as minus the log10 of a concentration measured in mol/L.

Q: Query: pIC50; subject: O=C(Nc1ccccc1)N1CCN(C(=O)c2cccc(OCCC3CCCCC3)c2)CC1
Result: 7.42
